assaySystem: Arylsulfatase A (Homo sapiens) (UniProt P15289)
Sequence (P15289 whole entry, looked up): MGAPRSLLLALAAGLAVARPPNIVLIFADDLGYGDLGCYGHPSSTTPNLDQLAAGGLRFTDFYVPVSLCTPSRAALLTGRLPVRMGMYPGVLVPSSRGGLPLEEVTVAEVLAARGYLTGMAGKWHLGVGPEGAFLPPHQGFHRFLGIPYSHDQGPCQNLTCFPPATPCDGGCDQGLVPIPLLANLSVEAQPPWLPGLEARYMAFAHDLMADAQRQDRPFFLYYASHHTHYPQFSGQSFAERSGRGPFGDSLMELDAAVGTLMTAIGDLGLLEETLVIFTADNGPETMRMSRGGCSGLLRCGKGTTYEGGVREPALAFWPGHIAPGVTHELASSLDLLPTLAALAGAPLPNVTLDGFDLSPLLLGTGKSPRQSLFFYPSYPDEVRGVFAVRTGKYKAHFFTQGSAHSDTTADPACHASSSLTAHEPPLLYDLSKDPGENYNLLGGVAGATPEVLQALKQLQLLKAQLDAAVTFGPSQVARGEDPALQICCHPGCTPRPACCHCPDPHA
experimentNotes: qHTS screen for enhancers of Arylsulfatase A (ASA1): LOPAC Validation Assay (AID 720538)
testParameters: ASA enzyme activity, LOPAC qHTS enhancer assay; series mostly up to 57.5 µM
Results filed as inconclusive are left out. The source made the active and inactive calls. The call rests on the fitted dose curve; in most records, active means well fitted activation curve with a large enough effect; inconclusive means small, poorly fitted or top-dose-only effect; inactive means no such curve, though single readings can be large or run the other way.
Respond using exactly one of the listed classes: true (1) (active), false (0) (inactive)

In this assay, the call recorded for "CC(=O)[C@H]1CC[C@H]2[C@@H]3CCC4=CC(=O)CC[C@]4(C)[C@H]3CC[C@]12C" was what?
false (0)

In this assay, the call recorded for "Cc1cc(O)c2c(c1)C(=O)c1cc(O)cc(O)c1C2=O" was what?
false (0)

In this assay, the call recorded for "N.N.N.N.N.N.N.N.N.N.N.N.N.N.O.O.[Ru+4].[Ru+5].[Ru+5]" was what?
true (1)

In this assay, the call recorded for "CCCCCCC(=O)OC1CC(C)(C)NC(C)(C)C1" was what?
false (0)

In this assay, the call recorded for CN1C2CCC1CC(OC(=O)C(CO)c1ccccc1)C2 (configuration not stated) was what?
false (0)

Continuing:
In this assay, the call recorded for "CC(=O)O[C@H]1C[C@@H]2CC[C@@H]3[C@H](CC[C@@]4(C)[C@H]3C[C@H]([N+]3(C)CCCCC3)[C@@H]4OC(C)=O)[C@@]2(C)C[C@@H]1[N+]1(C)CCCCC1" was what?
false (0)

In this assay, the call recorded for "O=[N+]([O-])c1ccc(O[C@@H]2O[C@H](CO)[C@@H](O)[C@H](O)[C@H]2F)c([N+](=O)[O-])c1" was what?
false (0)

###

experimentNotes: qHTS for Inhibitors of the Functional Ribonucleoprotein Complex (vRNP) of Lymphocytic Choriomeningitis Arenaviruses (LCMV): Viability assay - alamar blue signal for LCMV Primary Screen (AID 1347085); further: nearly all actives have a fitted effect of over 80% in size
testParameters: alamar blue viability counter-screen, LCMV vRNP screen cells; series mostly up to 57.5 µM
Records with an inconclusive call do not appear. Active and inactive are the calls of the source. Calls follow the shape of the full dose curve; tested in HEK293 reporter line.
Respond using exactly one of the listed classes: active, inactive

Sample answers from the record:
In this assay, the call recorded for "SC1CCCC1" was what?
inactive

In this assay, the call recorded for CC(=O)O[C@@H]1[C@@H](O)C2OC3C=C(C)C(=O)[C@@H](O)[C@]3(CO)C1(C)C21CO1 (some centres undefined) was what?
active

In this assay, the call recorded for "C/C(=C\C(=O)O)CC(=O)O" was what?
inactive

In this assay, the call recorded for COc1ccc(CC2=NN3C([C@@H](CCc4ccccc4)[C@@H](C)O)=NC(C)C3C(=O)N2)cc1OC (some centres undefined) was what?
inactive

In this assay, the call recorded for O=c1cc(-c2ccc(O)cc2)oc2cc(OC3OC(CO)C(O)C(O)C3O)c(C3OC(CO)C(O)C(O)C3O)c(O)c12 (centres undefined) was what?
inactive

Continuing:
In this assay, the call recorded for "O=c1[nH]c2ccccc2c2ccccc12" was what?
inactive

In this assay, the call recorded for "O=C(O)/C=C/c1cnc[nH]1" was what?
inactive

In this assay, the call recorded for "COc1ccc(CCN)cc1" was what?
inactive

In this assay, the call recorded for "CC(=O)O[C@H]1C[C@@H]2CC[C@H]3[C@H]4C[C@H]([N+]5(C)CCCCC5)[C@@H](OC(C)=O)[C@@]4(C)CC[C@@H]3[C@@]2(C)C[C@H]1N1CCCCC1" was what?
inactive

In this assay, the call recorded for "CN[C@@H]1CN(c2ccc3c(=O)c(C(=O)O)cn(-c4nccs4)c3n2)C[C@@H]1OC" was what?
active

In this assay, the call recorded for "COc1cc(=O)n(C)c2c(O)cccc12" was what?
inactive

###

Tested on: Es-2
experimentNotes: Primary qHTS to identify gynecologic anti-cancer compounds using libraries of approved drugs and bioactive compounds (AID 1345084); further: nearly all actives have a fitted effect of over 55% in size
testParameters: Gynecologic cancer cell panel viability, ATPlite luminescence, 48 h; series mostly up to 57.5 µM
Inconclusive results are not listed. Activity calls are given as the source filed them. The call rests on the fitted dose curve; in most records, active means well fitted cell-killing curve with a large enough effect; inconclusive means small, poorly fitted or top-dose-only effect, or effect the other way; inactive means flat fitted curve, though single readings scatter.
Respond using exactly one of the listed classes: yes (1) for active, no (0) for inactive

Sample answers from the record:
In this assay, the call recorded for "CCOc1ccc(Oc2ccc(OCc3cc(F)ccc3F)cc2)c(N)c1" was what?
no (0)

In this assay, the call recorded for "COc1ccc2c(c1)c(CCN(C)C)cn2S(=O)(=O)c1ccccc1" was what?
no (0)

In this assay, the call recorded for "CC1(C)C(=O)N(c2ccc(C#N)c(C(F)(F)F)c2)C(=S)N1c1ccc(C(N)=O)c(F)c1" was what?
no (0)

Continuing:
In this assay, the call recorded for "Cc1ccccc1C1=CCN(C)CC1" was what?
no (0)

###

Tested on: CRL-7250
experimentNotes: Cytotoxic Profiling of Annotated Libraries Using Quantitative High-Throughput Screening (AID 1296008); further: nearly all actives have a fitted effect of over 60% in size
testParameters: Five cell lines viability, CellTiter-Glo ATP luminescence, 48-72 h
Records with an inconclusive call do not appear. Active and inactive are the calls of the source. Calls follow the shape of the dose curve; as a rule, active = well fitted inhibition curve with a large enough effect; inconclusive = small, poorly fitted or top-dose-only effect; inactive = flat fitted curve, though single readings scatter.
Respond using exactly one of the listed classes: active, inactive

Sample answers from the record:
In this assay, the call recorded for "CN=C(NS(=O)(=O)c1ccc(Cl)cc1)N1C[C@H](c2ccccc2)C(c2ccc(Cl)cc2)=N1" was what?
inactive

In this assay, the call recorded for "CC1=C[C@H]2O[C@@H]3[C@H](O)[C@@H](O)[C@](C)([C@@]2(CO)C[C@@H]1O)[C@]31CO1" was what?
active

In this assay, the call recorded for "CCOc1ccc(Oc2ccc(OCc3cc(F)ccc3F)cc2)c(N)c1" was what?
inactive

Continuing:
In this assay, the call recorded for "CO/C1=C\C(C)=C\[C@@H](C)[C@@H](O)[C@@H](C)C/C(C)=C/C=C/[C@H](OC)[C@@H]([C@@H](C)[C@@H](O)[C@H](C)[C@@]2(O)C[C@@H](O)[C@H](C)[C@@H](C(C)C)O2)OC1=O" was what?
active

In this assay, the call recorded for CO[C@@H]1[C@H](O)[C@@H](O[C@@H]2C[C@H]3CC[C@@H]4C(CC[C@]5(C)[C@@H](C6=CC(=O)OC6)CC[C@]45O)[C@@]3(C)[C@H](O)C2)O[C@H](C)[C@@H]1O (stereo partly specified) was what?
active

###

experimentNotes: qHTS for Inhibitors of the Functional Ribonucleoprotein Complex (vRNP) of Lassa (LASV) Arenavirus: Viability assay - alamar blue signal for LASV Primary Screen (AID 1347083); further: nearly all actives have a fitted effect of over 80% in size
testParameters: cell viability, alamar blue fluorescence (LASV minigenome counter-screen); series mostly up to 57.5 µM
Records with an inconclusive call do not appear. Active and inactive are the calls of the source. The call rests on the fitted dose curve; tested in HEK293 reporter line.
Respond using exactly one of the listed classes: active, inactive

In this assay, the call recorded for "CCCn1c(=O)c2c(ncn2C)n(CCC)c1=O" was what?
inactive

In this assay, the call recorded for "CC[C@H]1OC(=O)[C@H](C)C(=O)[C@H](C)[C@@H](O[C@H]2O[C@H](C)C[C@H](N(C)C)[C@@H]2O)[C@](C)(OC)C[C@@H](C)C(=O)[C@H](C)[C@H]2N(CCCCn3cnc(-c4cccnc4)c3)C(=O)O[C@]12C" was what?
inactive

In this assay, the call recorded for "NC(=O)NN=Cc1ccc([N+](=O)[O-])o1" was what?
inactive

In this assay, the call recorded for C/C=C1/CN2C3CC1C(CO)(C(=O)OC)C2Cc1c3n(C)c2ccccc12 (stereo unspecified) was what?
inactive

In this assay, the call recorded for C[S+](C)CCC(N)C(=O)O (stereo unspecified) was what?
inactive

In this assay, the call recorded for CN1CCN2c3ccccc3Cc3ccccc3C2C1 (stereo unspecified) was what?
inactive

Continuing:
In this assay, the call recorded for CC(=O)SCC(Cc1ccccc1)C(=O)NCC(=O)OCc1ccccc1 (stereo unspecified) was what?
active

In this assay, the call recorded for "O=C(CNC(=O)c1ccccc1)c1ccccc1" was what?
inactive

In this assay, the call recorded for CN1CC(O)C(O)C(O)C1CO (stereo unspecified) was what?
inactive

In this assay, the call recorded for "O=C1O/C(=C\c2ccc(O)cc2)C(O)=C1c1ccc(O)cc1" was what?
inactive

In this assay, the call recorded for "OCCN1C[C@H](O)[C@@H](O)[C@H](O)[C@@H]1CO" was what?
inactive

###

Test system: SKOV3
experimentNotes: Primary qHTS to identify gynecologic anti-cancer compounds using libraries of approved drugs and bioactive compounds (AID 1345084); further: nearly all actives have a fitted effect of over 55% in size
testParameters: Gynecologic cancer cell panel viability, ATPlite luminescence, 48 h; series mostly up to 57.5 µM
Inconclusive results are not listed. The source made the active and inactive calls. Calls come from the whole dose curve; as a rule, active = well fitted cell-killing curve with a large enough effect; inconclusive = small, poorly fitted or top-dose-only effect, or effect the other way; inactive = flat fitted curve, though single readings scatter.
Respond using exactly one of the listed classes: active, inactive

Sample answers from the record:
In this assay, the call recorded for "CN=C(NS(=O)(=O)c1ccc(Cl)cc1)N1C[C@H](c2ccccc2)C(c2ccc(Cl)cc2)=N1" was what?
inactive

In this assay, the call recorded for "Cc1cccc(NC(=O)N[C@H]2CN(C)c3ccccc3C(c3ccccc3)=N2)c1" was what?
inactive

In this assay, the call recorded for "CCOC(=O)c1ccc(-c2ccc(OC(=O)N(C)Cc3cccc(-c4ccncc4)c3)cc2)cc1" was what?
inactive

In this assay, the call recorded for C/C=C(\C)C(=O)O[C@H]1CC2C(=C1C)[C@H]1OC(=O)[C@](C)(O)[C@]1(O)[C@H](OC(=O)CCC)C[C@@]2(C)OC(C)=O (some centres not stated) was what?
inactive

In this assay, the call recorded for "CO[C@H]1C[C@H](O[C@H]2CC[C@]3(CO)[C@H]4CC[C@]5(C)[C@@H](C6=CC(=O)OC6)CC[C@]5(O)[C@@H]4CC[C@]3(O)C2)O[C@H](C)[C@H]1O" was what?
active

Continuing:
In this assay, the call recorded for CC1=CC(=O)[C@@H](O)[C@]2(C)C3[C@@H](O)[C@@H]4OC(=O)[C@@H]([C@H]4C)[C@]3(C)C(=O)[C@H](O)[C@@H]12 (some centres not stated) was what?
inactive

In this assay, the call recorded for "C[C@H](Nc1ncnc2nc[nH]c12)c1nc2ccc(F)cc2c(=O)n1-c1ccccc1" was what?
inactive

In this assay, the call recorded for "C=C(C)[C@@]12O[C@@H]1[C@@]1(C)C(=C[C@H]2O)CC[C@@H](O)[C@@H]1C" was what?
inactive

Values were extracted from PubChem BioAssay (NCATS).
